molecular target: FLT3 wt (Homo sapiens, UniProt P36888); assay: Lanthascreen TR-FRET enzymatic assay, FLT3; settings: recombinant FLT3, 1 hour at 25° C., 1% DMSO; read-out: Enzymology (IC50) FLT3 wt
Sequence (P36888 564-993 limits assumed): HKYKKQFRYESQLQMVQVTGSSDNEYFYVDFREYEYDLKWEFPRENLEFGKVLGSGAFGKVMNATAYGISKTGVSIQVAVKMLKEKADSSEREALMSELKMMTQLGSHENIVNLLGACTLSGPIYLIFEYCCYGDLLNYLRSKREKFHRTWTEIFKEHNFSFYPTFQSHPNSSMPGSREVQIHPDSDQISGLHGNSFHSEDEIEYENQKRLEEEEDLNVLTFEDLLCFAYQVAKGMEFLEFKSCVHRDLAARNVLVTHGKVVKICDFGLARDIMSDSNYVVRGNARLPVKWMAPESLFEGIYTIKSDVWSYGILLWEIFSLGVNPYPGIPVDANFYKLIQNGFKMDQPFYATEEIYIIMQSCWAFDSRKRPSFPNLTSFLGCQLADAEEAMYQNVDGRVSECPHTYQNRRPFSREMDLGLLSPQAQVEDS
measure: IC50

Solved entries (count: 2):
COc1cc2c(cc1N)c(=O)n(C)c1cnc(Nc3ccc(OCCN4CCCC4)cc3)nc21: 100 to 1000 nM
COc1cc2c(cc1N)c(=O)n(C)c1cnc(Nc3cc(N)cc(F)c3)nc21: 100 to 1000 nM

For each listed entry, give its IC50.
1. CN1CCN(c2ccc(Nc3ncc4c(n3)c3ccc(N)cc3c(=O)n4C)cc2)CC1
2. Cn1c(=O)c2cc(N)ccc2c2nc(Nc3ccc(OCCN4CCCC4)cc3)ncc21
3. COc1cc2c(cc1N)c(=O)n(C)c1cnc(Nc3ccc(F)c(N)c3)nc21
4. Cn1c(=O)c2cc(N)ccc2c2nc(Nc3ccc(F)c(N)c3)ncc21
5. COc1cc2c(cc1N)c(=O)n(C)c1cnc(Nc3ccc(N4CCN(C)CC4)cc3)nc21

Result:
["25 to 100 nM", "25 to 100 nM", "100 to 1000 nM", "100 to 1000 nM", "25 to 100 nM"]

Could I get IC50 for every one of these entries?
1. CN1CCN(c2cccc(Nc3ncc4c(n3)c3ccc(N)cc3c(=O)n4C)c2)CC1
2. Cn1c(=O)c2cc(N)ccc2c2nc(Nc3cccc(N)c3)ncc21

Result:
1. 25 to 100 nM
2. 25 to 100 nM
